# Kd per entry
- MEASUREMENT_TARGET: human serum albumin (HSA) (Homo sapiens, UniProt P02768)
- Sequence (P02768 25-609): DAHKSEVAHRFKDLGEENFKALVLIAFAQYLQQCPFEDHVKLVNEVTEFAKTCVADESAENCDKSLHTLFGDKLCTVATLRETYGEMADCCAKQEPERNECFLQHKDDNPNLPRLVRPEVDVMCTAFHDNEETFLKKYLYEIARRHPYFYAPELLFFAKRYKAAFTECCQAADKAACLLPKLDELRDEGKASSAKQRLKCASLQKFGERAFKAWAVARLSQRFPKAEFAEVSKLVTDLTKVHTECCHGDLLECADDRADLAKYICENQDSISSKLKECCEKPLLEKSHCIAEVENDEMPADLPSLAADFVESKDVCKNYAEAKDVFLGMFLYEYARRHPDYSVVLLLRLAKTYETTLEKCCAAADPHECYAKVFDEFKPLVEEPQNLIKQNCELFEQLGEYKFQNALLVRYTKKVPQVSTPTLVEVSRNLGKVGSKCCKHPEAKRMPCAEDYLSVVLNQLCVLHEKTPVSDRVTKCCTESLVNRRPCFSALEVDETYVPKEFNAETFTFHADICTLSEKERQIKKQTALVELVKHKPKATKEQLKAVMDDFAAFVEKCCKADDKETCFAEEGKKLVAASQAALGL
- PROTOCOL_TEXT: Intrinsic fluorescence quenching of HSA, multiwell format
- SETTINGS: Kd values by Intrinsic Fluorescence, Multiwell, 2.02 μM HSA, 96-well plates, excitation 280 nm, emission 340 nm; average Kd ± average standard error

INSERT INTO measurements (molecule, measurement_target, reading) VALUES
  ('O=C(N[C@H](CO)[C@H](O)c1ccc([N+](=O)[O-])cc1)C(Cl)Cl [Chloramphenicol, chloramphenicol]', 'human serum albumin (HSA) (Homo sapiens, UniProt P02768)', '150 µM');

API: the following record is the query input.
Form entry - test system: human serum albumin (HSA) (Homo sapiens, UniProt P02768); read-out: Kd; molecule: O=C1C(CC[S+]([O-])c2ccccc2)C(=O)N(c2ccccc2)N1c1ccccc1 (racemic) [Sulfinpyrazone, (±) sulfinpyrazone] 15 µM
